The measurements presented in this section are drawn from ChEMBL document CHEMBL1157539.

Catalogue of Inhibition values
tested on: Plasmodium falciparum; test: GSK_TCMDC: Inhibition of Plasmodium falciparum Dd2 in whole red blood cells, using parasite LDH activity as an index of growth. Test compounds present at 2uM; format: functional
Please state the figure in %; there is no need to write the unit.

- O=C(CCc1c[nH]cn1)Nc1cccc(-c2cccc(-c3nc4cc(C(F)(F)F)ccc4[nH]3)c2)c1: 99

# return recorded Inhibition for input "O=C(CSc1nc2ccc([N+](=O)[O-])cc2s1)Nc1ccccc1-c1ccccc1"
49

Indicate the recorded Inhibition value for this compound: "COc1ccc(CCN(Cc2cccs2)C(=O)c2cc3sccc3n2C)cc1OC"
97
